# ASSAYED TARGET: T1, EsCas13d, nuclease-dead (Eubacterium siraeum, UniProt B0MS50, R295A;H300A;R849A;H854A)
# T1 sequence: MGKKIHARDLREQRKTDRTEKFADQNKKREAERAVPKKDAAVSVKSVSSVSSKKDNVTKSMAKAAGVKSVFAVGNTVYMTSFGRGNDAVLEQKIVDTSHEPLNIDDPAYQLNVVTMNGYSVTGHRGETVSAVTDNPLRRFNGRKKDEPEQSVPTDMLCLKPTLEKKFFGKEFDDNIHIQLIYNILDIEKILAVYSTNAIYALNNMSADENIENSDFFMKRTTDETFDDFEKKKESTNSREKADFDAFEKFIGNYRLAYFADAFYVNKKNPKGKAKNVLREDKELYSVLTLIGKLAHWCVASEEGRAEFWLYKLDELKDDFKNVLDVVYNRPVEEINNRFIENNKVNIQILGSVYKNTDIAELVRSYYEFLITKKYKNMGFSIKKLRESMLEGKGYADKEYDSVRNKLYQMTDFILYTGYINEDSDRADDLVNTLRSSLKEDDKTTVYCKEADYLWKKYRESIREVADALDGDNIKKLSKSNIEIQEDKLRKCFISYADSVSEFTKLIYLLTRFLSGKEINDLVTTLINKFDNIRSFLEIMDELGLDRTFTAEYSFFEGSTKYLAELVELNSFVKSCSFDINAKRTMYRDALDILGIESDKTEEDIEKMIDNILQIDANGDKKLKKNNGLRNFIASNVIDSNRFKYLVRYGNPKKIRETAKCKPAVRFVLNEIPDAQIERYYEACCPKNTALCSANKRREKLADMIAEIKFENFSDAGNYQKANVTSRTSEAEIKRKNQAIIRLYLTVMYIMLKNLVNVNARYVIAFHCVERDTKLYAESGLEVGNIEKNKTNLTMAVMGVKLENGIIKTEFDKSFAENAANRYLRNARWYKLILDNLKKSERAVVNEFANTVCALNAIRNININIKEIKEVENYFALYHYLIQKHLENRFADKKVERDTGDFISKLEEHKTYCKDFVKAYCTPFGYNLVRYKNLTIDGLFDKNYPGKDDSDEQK
# PROTOCOL NOTES: crRNA (strand 1, pre-loaded); Mg2+; 40 mM Tris-HCl pH 7.5, 150 mM NaCl, 6 mM MgCl2, 1 mM DTT, 0.1% Tween-20, 0.2 mg/ml BSA; 25 C; 10 min per concentration, then washed
# REPORTED CONDITIONS: tags: His6-TwinStrep-SUMO cleaved; N-terminal SNAP kept (SNAP-Surface 488); label: 3' end held by stalled T7 RNA polymerase
pKd: −log10 of the molar value.

BINDER	pKd
target 1 G12U,G17U (mixed) RNA 1: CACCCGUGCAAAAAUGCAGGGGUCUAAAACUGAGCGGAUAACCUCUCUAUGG RNA 2: GGGAAUGGAUCCACAUCUACGAAUUCGUACCAUAUAGAGUUUAUCCGCUCACCGAGAUCGGAAGAGCACACGU	7.50
target 3 insG 3' of 5,insA 3' of 3 (mixed) RNA 1: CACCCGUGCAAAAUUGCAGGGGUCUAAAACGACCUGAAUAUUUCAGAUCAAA RNA 2: GGGAAUGGAUCCACAUCUACGAAUUCGUUUUUGAUCUGAAAUAUUCAGGGAUCUGCAGAUCGGAAGAGCACACGU	7.76
target 3 insA 3' of 10,insA 3' of 8 (mixed) RNA 1: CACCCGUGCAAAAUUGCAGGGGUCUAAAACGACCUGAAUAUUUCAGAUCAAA RNA 2: GGGAAUGGAUCCACAUCUACGAAUUCGUUUUUGAUCUGAAAUAAUAUCAGGUCUGCAGAUCGGAAGAGCACACGU	6.96
target 1 insC 3' of 18,insU 3' of 4 (mixed) RNA 1: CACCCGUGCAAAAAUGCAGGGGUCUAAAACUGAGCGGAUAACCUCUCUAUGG RNA 2: GGGAAUGGAUCCACAUCUACGAAUUCGUACCAUACGAGAGGUUAUCCGCUUCACCGAGAUCGGAAGAGCACACGU	7.59
